Target: T1, HLA-A*01:01 (human)
T1 construct: MHC class I monomer first loaded with a UV-sensitive peptide (not identified) that is cleaved by UV irradiation and exchanged for the tested peptide; captured on streptavidin plates, detected with anti-β2m; also called peptide-receptive MHC molecules
Assay: UV-ligand exchange, anti-b2m ELISA
Reported peptide exchange yield values follow for various binders
recordedEndpoint: peptide exchange yield

- binder: "NAVDVVPSSF"
  recordedEndpoint: "peptide exchange yield"
  result: "10 to 20%"
- binder: "GTDKQNSTLRY"
  recordedEndpoint: "peptide exchange yield"
  result: "50 to 75%"
- binder: "KTIQEVAGY"
  recordedEndpoint: "peptide exchange yield"
  result: "20 to 50%"
- binder: "FTAEEGQLY"
  recordedEndpoint: "peptide exchange yield"
  result: "50 to 75%"
- binder: "QTDINGGSLK"
  recordedEndpoint: "peptide exchange yield"
  result: "50 to 75%"
- binder: "LCAAVLAKY"
  recordedEndpoint: "peptide exchange yield"
  result: "20 to 50%"
- binder: "CGPNEINHFY"
  recordedEndpoint: "peptide exchange yield"
  result: "20 to 50%"
- binder: "EAAPDIMHY"
  recordedEndpoint: "peptide exchange yield"
  result: "20 to 50%"
- binder: "NVKEAPTEY"
  recordedEndpoint: "peptide exchange yield"
  result: "20 to 50%"
- binder: "SVDSNLVAY"
  recordedEndpoint: "peptide exchange yield"
  result: "50 to 75%"
- binder: "YEPATMEQY"
  recordedEndpoint: "peptide exchange yield"
  result: "20 to 50%"
- binder: "DCMDTEGSYM"
  recordedEndpoint: "peptide exchange yield"
  result: "20 to 50%"
- binder: "PSEVPVDSHY"
  recordedEndpoint: "peptide exchange yield"
  result: "> 75%"
- binder: "ITDTLIHL"
  recordedEndpoint: "peptide exchange yield"
  result: "20 to 50%"
- binder: "VQIAKGMNY"
  recordedEndpoint: "peptide exchange yield"
  result: "50 to 75%"
- binder: "PSSMPECLSYY"
  recordedEndpoint: "peptide exchange yield"
  result: "50 to 75%"
